# key: entry, value: log10 IC50
assayed-system: Follicle Stimulating Hormone Receptor (FSHR) (Homo sapiens)
Construct: HA (N)
Sequence (P23945 18-695): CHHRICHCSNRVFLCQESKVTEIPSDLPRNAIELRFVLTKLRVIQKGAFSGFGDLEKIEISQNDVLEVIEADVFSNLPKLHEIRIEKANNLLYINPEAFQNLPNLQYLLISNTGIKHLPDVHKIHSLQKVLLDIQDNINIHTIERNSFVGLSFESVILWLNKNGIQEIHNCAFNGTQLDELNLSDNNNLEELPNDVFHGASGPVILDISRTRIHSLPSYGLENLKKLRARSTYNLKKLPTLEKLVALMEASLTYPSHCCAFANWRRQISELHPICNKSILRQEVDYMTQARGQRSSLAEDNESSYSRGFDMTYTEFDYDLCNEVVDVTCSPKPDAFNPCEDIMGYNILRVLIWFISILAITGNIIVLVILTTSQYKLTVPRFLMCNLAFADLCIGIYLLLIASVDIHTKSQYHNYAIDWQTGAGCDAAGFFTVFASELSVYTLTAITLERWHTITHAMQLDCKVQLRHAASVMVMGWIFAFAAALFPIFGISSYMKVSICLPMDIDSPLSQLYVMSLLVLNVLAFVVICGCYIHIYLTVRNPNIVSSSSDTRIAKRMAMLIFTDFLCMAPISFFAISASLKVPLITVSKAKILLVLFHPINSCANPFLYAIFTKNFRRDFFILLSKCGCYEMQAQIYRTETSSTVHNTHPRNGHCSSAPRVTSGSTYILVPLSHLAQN
experiment-summary: HTRF cAMP agonist assay, FSHR, transiently transfected CHO-K1 cells
condition-label: CHO-K1 cells transiently expressing human FSHR, read-out: IC50 FSHR LANCE CAMP
# values: log10(IC50), units nM

Some entries whose results are on file:
{"columns": ["molecule", "assayed-system", "measured-result"],
 "data": [
  ["CCCn1nc(C(=O)N2CCOCC2(C)C)c2c1-c1cc(-c3cncc(C(N)=O)c3)c(OC)cc1CC2", "Follicle Stimulating Hormone Receptor (FSHR) (Homo sapiens)", 1.97],
  ["COc1cc2c(cc1-c1cncc(C(N)=O)c1)-c1c(c(C(=O)N3C4CC3CN(C(=O)OC(C)(C)C)C4)nn1-c1cc(Cl)cc(Cl)c1)CC2 [Compound 8-16A]", "Follicle Stimulating Hormone Receptor (FSHR) (Homo sapiens)", 1.90],
  ["COc1cc2c(cc1-c1cncc(C(N)=O)c1)-c1c(c(C(=O)N3[C@@H](C)COC[C@@H]3C)nn1-c1cc(Cl)cc(Cl)c1)CC2", "Follicle Stimulating Hormone Receptor (FSHR) (Homo sapiens)", 0.54],
  ["CCC1C(=O)NCCN1C(=O)c1nn(-c2ccccn2)c2c1CCc1ccc(-c3cccnc3)cc1-2 (stereo not drawn)", "Follicle Stimulating Hormone Receptor (FSHR) (Homo sapiens)", 3.39],
  ["COc1cc2c(cc1-c1cncc(C(N)=O)c1)-c1c(c(C(=O)N3CCCNCC3)nn1-c1cc(Cl)cc(Cl)c1)CC2", "Follicle Stimulating Hormone Receptor (FSHR) (Homo sapiens)", 2.65],
  ["COc1cc2c(cc1-c1cncc(C(N)=O)c1)-c1c(c(C(=O)N(C)C(C)(C)C)nn1-c1ccsc1)C2", "Follicle Stimulating Hormone Receptor (FSHR) (Homo sapiens)", 0.91],
  ["COc1cc2c(cc1-c1cncc(C(N)=O)c1)-c1c(c(C(=O)N3CCN(CC(=O)O)CC3(C)C)nn1-c1cc(Cl)cc(Cl)c1)CC2", "Follicle Stimulating Hormone Receptor (FSHR) (Homo sapiens)", 3.53],
  ["COc1cc2c(cc1-c1cncc(C(N)=O)c1)-c1[nH]nc(C(=O)N3CCOCC3(C)C)c1CC2", "Follicle Stimulating Hormone Receptor (FSHR) (Homo sapiens)", 3.25]
]}

Turning to the following molecule.
# molecule `CC1(C)COCCN1C(=O)c1nn(-c2cc(Cl)cc(Cl)c2)c2c1CCc1ccc(-c3cncc(C(N)=O)c3)cc1-2` ; its log10 IC50 = 0.58
